- Tested on: troponin
- Run description: Retention time in troponin high-performance liquid affinity chromatography (HPLAC) column, calcium dependent binding to troponin
- Experimental conditions: mobile phase without calcium (EDTA); flow rate 1 ml/min
Quantity measured: Retention time in troponin-HPLAC column, EDTA solution (min)

Consider the reported Retention time in troponin-HPLAC column, EDTA solution for these compounds:
O=C1CCC(c2ccc(Nc3ccncc3)cc2)=NN1 [MCI-154, reference compound] ... 12.4
CC1(C)C(=O)Nc2cc3[nH]c(-c4ccncc4)nc3cc21 [adibendan, reference compound] ... 15.0
COc1ccc(-c2nc3ccc(C4=NNC(=O)CC4C)cc3[nH]2)cc1 (centres unmarked) [pimobendan, reference compound] ... 79.6
N#CC(C#N)=NNc1ccc(C=CC2=NNC(=O)SC2)cc1 ... 8.0
Cc1[nH]c(=O)c(C#N)cc1-c1ccncc1 [milrinone, reference compound] ... 1.2

[I] CC1CC(=O)NN=C1/C=C/c1ccc(NN=C(C#N)C#N)cc1 (centres unmarked)
[II] N#CC(C#N)=NNc1ccc(C2=NNC(=O)NC2)cc1
# input Return label of the item with the larger Retention time in troponin-HPLAC column, EDTA solution. Candidates: I , II . Returns: label corresponding to the selected item.
# output I
(I: 3.9 min, II: 0.9 min)
